GI50 values for the compounds below.
- System: UACC-62 melanoma
- Assay Overview: NCI tumour cell line growth inhibition, 48 h
Property Measured: GI50

>>> measured("N#C/C(=C\\c1ccc(Cl)cc1)n1nnc2cc(F)c(F)cc21")
"1.8 µM"
>>> measured("COc1ccc2c(c1)C(=O)c1c-2c(N2CCN(C(=O)CN(C)C)CC2)nc2ccccc12")
"15.3 µM"
>>> measured("Cn1c(Cc2ccccc2)nc2cc3ccccc3cc21")
"19.6 µM"
>>> measured("O=C(/C=C/C12c3ccccc3C(c3ccccc31)C1C(=O)NC(=O)C12)c1ccco1 (centres undefined)")
"2.16 µM"

----------
TGI values for the compounds below.
- System: HCT-116 colon
- Assay Overview: NCI tumour cell line growth inhibition, 48 h
Property Measured: TGI

>>> measured("Fc1ccc(Nc2ccc3cc(OCCCN4CCOCC4)ccc3n2)cc1F")
"> 100 µM"
>>> measured("CC1(C)OC(=O)C=C(O)O1.CC1(C)OC(=O)C=C(O)O1.CCO.Oc1ccc2c(c1)CCC2.[Ti]")
"> 100 µM"
>>> measured("C#CCOC(=O)C(N)CS (stereo unspecified)")
"> 100 µM"
>>> measured("Cc1c(N)nc([C@H](CC(N)=O)NC[C@H](N)C(N)=O)nc1C(=O)N[C@H](C(=O)N[C@H](C)[C@@H](O)[C@H](C)C(=O)N[C@H](C(=O)NCCc1nc(-c2nc(C(=O)NCCC[S+](C)C)cs2)cs1)[C@@H](C)O)C(OC1OC(CO)C(O)C(O)C1OC1OC(CO)C(O)C(OC(N)=O)C1O)c1cnc[nH]1 (stereo partly specified)")
"20.9 µM [middle of 4 runs]"
>>> measured("COc1cc2c3c(n(CCCn4ccnc4)c(=O)c2cc1OC)-c1ccccc1C3=O")
"0.153 µM"
>>> measured("CC(=O)Oc1cc2c(=O)oc3c(OC(C)=O)c(OC(C)=O)c(OC(C)=O)c4c(=O)oc(c1OC(C)=O)c2c34")
"52.6 µM"
>>> measured("Clc1ccc2c(Cl)ncnc2c1I")
"> 100 µM"
>>> measured("O=C(Nc1ccc(N=Nc2ccccc2)cc1)Sc1ccccc1C(=O)O")
"> 100 µM"
>>> measured("CN1CCC23c4ccccc4NC1C21CCN(C)C3Nc2ccccc21")
"> 375 µM"
>>> measured("N#Cc1c(N)nc(N2CCOCC2)c(C#N)c1-c1cccc(O)c1")
"> 100 µM"
>>> measured("OCC1OC(O)C(N=Cc2ccc3c(c2)OCO3)C(O)C1O (stereo unspecified)")
"> 100 µM"
